# EC50 values compiled below
Biological target: UniProtKB Q9NYK1
Sequence (Q9NYK1 whole entry): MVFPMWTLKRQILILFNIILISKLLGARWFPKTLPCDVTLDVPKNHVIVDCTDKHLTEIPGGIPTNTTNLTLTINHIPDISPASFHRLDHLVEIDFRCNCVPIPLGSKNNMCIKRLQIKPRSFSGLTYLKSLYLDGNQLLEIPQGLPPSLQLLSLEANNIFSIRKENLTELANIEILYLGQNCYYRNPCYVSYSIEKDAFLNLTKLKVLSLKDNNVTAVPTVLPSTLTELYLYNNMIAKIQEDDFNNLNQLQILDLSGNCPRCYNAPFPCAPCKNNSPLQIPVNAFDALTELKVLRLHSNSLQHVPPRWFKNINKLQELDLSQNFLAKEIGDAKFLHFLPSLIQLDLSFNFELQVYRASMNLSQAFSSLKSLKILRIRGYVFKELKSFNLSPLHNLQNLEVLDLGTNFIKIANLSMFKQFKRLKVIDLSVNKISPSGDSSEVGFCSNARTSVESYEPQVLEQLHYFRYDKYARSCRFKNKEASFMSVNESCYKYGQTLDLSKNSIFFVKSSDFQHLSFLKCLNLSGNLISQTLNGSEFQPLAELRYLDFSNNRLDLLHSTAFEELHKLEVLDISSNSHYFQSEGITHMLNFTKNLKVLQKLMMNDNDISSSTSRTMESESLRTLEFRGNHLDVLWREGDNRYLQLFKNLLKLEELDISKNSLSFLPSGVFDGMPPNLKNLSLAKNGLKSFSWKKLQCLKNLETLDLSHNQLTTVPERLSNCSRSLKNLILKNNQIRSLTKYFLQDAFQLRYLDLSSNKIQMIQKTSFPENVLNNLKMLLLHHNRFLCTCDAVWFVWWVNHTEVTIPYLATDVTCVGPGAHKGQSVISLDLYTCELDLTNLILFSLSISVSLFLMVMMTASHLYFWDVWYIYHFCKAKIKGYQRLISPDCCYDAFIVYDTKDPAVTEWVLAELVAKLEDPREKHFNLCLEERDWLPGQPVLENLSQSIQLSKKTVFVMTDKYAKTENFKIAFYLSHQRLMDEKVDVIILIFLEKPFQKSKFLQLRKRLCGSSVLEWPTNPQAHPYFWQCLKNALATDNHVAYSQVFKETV

Illustrative cases are given below, each with its answer.
> print(dat)
                                 cpd.smiles   subject.of.test  observation.type    result
1  CCCN(CCC)C(=O)C1=Cc2ccc(C(=O)NC(c3ccccc3)c3ccccc3)cc2N=C(N)C1  UniProtKB Q9NYK1              EC50  > 100 nM
2  CCCN(CCC)C(=O)C1=Cc2ccc(C(=O)N3CC4(C3)CN(c3ccc(C)cc3)C4)cc2N=C(N)C1  UniProtKB Q9NYK1              EC50  > 100 nM

// next entry
// map `CCc1nc2c(N)nc3ccccc3c2n1CCCCNS(C)(=O)=O` to recorded EC50 (system: UniProtKB Q9NYK1) ~3000 nM
